These entries and their values trace back to the supplement of paper PMC5998384.

Catalogue of sequences with associated melting temperature
tested on: HeLa Kyoto; test: melting temperature (median over replicates), in situ; higher = more thermally stable; details: cell cycle stage: G1/S
Please respond with the number in °C and leave the unit unwritten.

MSRLLPLLRSRTARSLRPGPAAAAAPRPPSWCCCGRGLLALAPPGGLPGGPRRLGTHPKKEPMEALNTAQGARDFIYSLHSTERSCLLKELHRFESIAIAQEKLEAPPPTPGQLRYVFIHNAIPFIGFGFLDNAIMIVAGTHIEMSIGIILGISTMAAAALGNLVSDLAGLGLAGYVEALASRLGLSIPDLTPKQVDMWQTRLSTHLGKAVGVTIGCILGMFPLIFFGGGEEDEKLETKS [TMEM65] | 55.5
MAAAAASLRGVVLGPRGAGLPGARARGLLCSARPGQLPLRTPQAVALSSKSGLSRGRKVMLSALGMLAAGGAGLAMALHSAVSASDLELHPPSYPWSHRGLLSSLDHTSIRRGFQVYKQVCASCHSMDFVAYRHLVGVCYTEDEAKELAAEVEVQDGPNEDGEMFMRPGKLFDYFPKPYPNSEAARAANNGALPPDLSYIVRARHGGEDYVFSLLTGYCEPPTGVSLREGLYFNPYFPGQAIAMAPPIYTDVLEFDDGTPATMSQIAKDVCTFLRWASEPEHDHRKRMGLKMLMMMALLVPLVYTIKRHKWSVLKSRKLAYRPPK [CYC1] | 54.5

Proceeding to the next sequence to report its melting temperature.
Value (melting temperature, HeLa Kyoto) for record MTEQAISFAKDFLAGGIAAAISKTAVAPIERVKLLLQVQHASKQIAADKQYKGIVDCIVRIPKEQGVLSFWRGNLANVIRYFPTQALNFAFKDKYKQIFLGGVDKHTQFWRYFAGNLASGGAAGATSLCFVYPLDFARTRLAADVGKSGTEREFRGLGDCLVKITKSDGIRGLYQGFSVSVQGIIIYRAAYFGVYDTAKGMLPDPKNTHIVVSWMIAQTVTAVAGVVSYPFDTVRRRMMMQSGRKGADIMYTGTVDCWRKIFRDEGGKAFFKGAWSNVLRGMGGAFVLVLYDELKKVI [SLC25A6] = 57.1

====

tested on: HeLa Kyoto; assay: solubility change mitosis vs G1/S (difference of NP-40 vs SDS log2 ratios) (log2 ratio difference); higher = more soluble in mitosis
Returns the class for an entry based on its solubility change mitosis (log2). Class ranges: class A (below -0.004), class B (-0.004 to below 0.2), class C (0.2 or more)

MPKRSCPFADVAPLQLKVRVSQRELSRGVCAERYSQEVFEKTKRLLFLGAQAYLDHVWDEGCAVVHLPESPKPGPTGAPRAARGQMLIGPDGRLIRSLGQASEADPSGVASIACSSCVRAVDGKAVCGQCERALCGQCVRTCWGCGSVACTLCGLVDCSDMYEKVLCTSCAMFET [SIVA1] | class A
MAAPLRIQSDWAQALRKDEGEAWLSCHPPGKPSLYGSLTCQGIGLDGIPEVTASEGFTVNEINKKSIHISCPKENASSKFLAPYTTFSRIHTKSITCLDISSRGGLGVSSSTDGTMKIWQASNGELRRVLEGHVFDVNCCRFFPSGLVVLSGGMDAQLKIWSAEDASCVVTFKGHKGGILDTAIVDRGRNVVSASRDGTARLWDCGRSACLGVLADCGSSINGVAVGAADNSINLGSPEQMPSEREVGTEAKMLLLAREDKKLQCLGLQSRQLVFLFIGSDAFNCCTFLSGFLLLAGTQDGNIYQLDVRSPRAPVQVIHRSGAPVLSLLSVRDGFIASQGDGSCFIVQQDLDYVTELTGADCDPVYKVATWEKQIYTCCRDGLVRRYQLSDL [PAAF1] | class A
MAEAGTGEPSPSVEGEHGTEYDTLPSDTVSLSDSDSDLSLPGGAEVEALSPMGLPGEEDSGPDEPPSPPSGLLPATVQPFHLRGMSSTFSQRSRDIFDCLEGAARRAPSSVAHTSMSDNGGFKRPLAPSGRSPVEGLGRAHRSPASPRVPPVPDYVAHPERWTKYSLEDVTEVSEQSNQATALAFLGSQSLAAPTDCVSSFNQDPSSCGEGRVIFTKPVRGVEARHERKRVLGKVGEPGRGGLGNPATDRGEGPVELAHLAGPGSPEAEEWGSHHGGLQEVEALSGSVHSGSVPGLPPVETVGFHGSRKRSRDHFRNKSSSPEDPGAEV [TSSC4] | class B
MAQESPKNSAAEIPVTSNGEVDDSREHSFNRDLKHSLPSGLGLSETQITSHGFDNTKEGVIEAGAFQGSPAPPLPSVMSPSRVAASRLAQQGSDLIVPAGGQRTQTKSGPVILADEIKNPAMEKLELVRKWSLNTYKCTRQIISEKLGRGSRTVDLELEAQIDILRDNKKKYENILKLAQTLSTQLFQMVHTQRQLGDAFADLSLKSLELHEEFGYNADTQKLLAKNGETLLGAINFFIASVNTLVNKTIEDTLMTVKQYESARIEYDAYRTDLEELNLGPRDANTLPKIEQSQHLFQAHKEKYDKMRNDVSVKLKFLEENKVKVLHNQLVLFHNAIAAYFAGNQKQLEQTLKQFHIKLKTPGVDAPSWLEEQ [ARFIP1] | class A
MSLSDWHLAVKLADQPLTPKSILRLPETELGEYSLGGYSISFLKQLIAGKLQESVPDPELIDLIYCGRKLKDDQTLDFYGIQPGSTVHVLRKSWPEPDQKPEPVDKVAAMREFRVLHTALHSSSSYREAVFKMLSNKESLDQIIVATPGLSSDPIALGVLQDKDLFSVFADPNMLDTLVPAHPALVNAIVLVLHSVAGSAPMPGTDSSSRSMPSSSYRDMPGGFLFEGLSDDEDDFHPNTRSTPSSSTPSSRPASLGYSGAAGPRPITQSELATALALASTPESSSHTPTPGTQGHSSGTSPMSSGVQSGTPITNDLFSQALQHALQASGQPSLQSQWQPQLQQLRDMGIQDDELSLRALQATGGDIQAALELIFAGGAP [UBL7] | class B

Entry MSAQAQMRALLDQLMGTARDGDETRQRVKFTDDRVCKSHLLDCCPHDILAGTRMDLGECTKIHDLALRADYEIASKERDLFFELDAMDHLESFIAECDRRTELAKKRLAETQEEISAEVSAKAEKVHELNEEIGKLLAKAEQLGAEGNVDESQKILMEVEKVRAKKKEAEEEYRNSMPASSFQQQKLRVCEVCSAYLGLHDNDRRLADHFGGKLHLGFIQIREKLDQLRKTVAEKQEKRNQDRLRRREEREREERLSRRSGSRTRDRRRSRSRDRRRRRSRSTSRERRKLSRSRSRDRHRRHRSRSRSHSRGHRRASRDRSAKYKFSRERASREESWESGRSERGPPDWRLESSNGKMASRRSEEKEAGEI [LUC7L] belongs to which category?
class C

Entry MALPFRKDLEKYKDLDEDELLGNLSETELKQLETVLDDLDPENALLPAGFRQKNQTSKSTTGPFDREHLLSYLEKEALEHKDREDYVPYTGEKKGKIFIPKQKPVQTFTEEKVSLDPELEEALTSASDTELCDLAAILGMHNLITNTKFCNIMGSSNGVDQEHFSNVVKGEKILPVFDEPPNPTNVEESLKRTKENDAHLVEVNLNNIKNIPIPTLKDFAKALETNTHVKCFSLAATRSNDPVATAFAEMLKVNKTLKSLNVESNFITGVGILALIDALRDNETLAELKIDNQRQQLGTAVELEMAKMLEENTNILKFGYQFTQQGPRTRAANAITKNNDLVRKRRVEGDHQ [TMOD3] belongs to which category?
class C

Entry MASKCPKCDKTVYFAEKVSSLGKDWHKFCLKCERCSKTLTPGGHAEHDGKPFCHKPCYATLFGPKGVNIGGAGSYIYEKPLAEGPQVTGPIEVPAARAEERKASGPPKGPSRASSVTTFTGEPNTCPRCSKKVYFAEKVTSLGKDWHRPCLRCERCGKTLTPGGHAEHDGQPYCHKPCYGILFGPKGVNTGAVGSYIYDRDPEGKVQP [CRIP2] belongs to which category?
class B

Entry MAVPAAAMGPSALGQSGPGSMAPWCSVSSGPSRYVLGMQELFRGHSKTREFLAHSAKVHSVAWSCDGRRLASGSFDKTASVFLLEKDRLVKENNYRGHGDSVDQLCWHPSNPDLFVTASGDKTIRIWDVRTTKCIATVNTKGENINICWSPDGQTIAVGNKDDVVTFIDAKTHRSKAEEQFKFEVNEISWNNDNNMFFLTNGNGCINILSYPELKPVQSINAHPSNCICIKFDPMGKYFATGSADALVSLWDVDELVCVRCFSRLDWPVRTLSFSHDGKMLASASEDHFIDIAEVETGDKLWEVQCESPTFTVAWHPKRPLLAFACDDKDGKYDSSREAGTVKLFGLPNDS [THOC3] belongs to which category?
class B

====

tested on: HeLa Kyoto; assay: thermal stability score vs G1/S (z-score of summed log2 fold changes over temperatures); higher = more thermally stable than in G1/S; details: cell cycle stage: mitosis
Catalogue of sequences with associated thermal stability score
Please give only the number in your answer, with no unit.

MMRFMLLFSRQGKLRLQKWYLATSDKERKKMVRELMQVVLARKPKMCSFLEWRDLKVVYKRYASLYFCCAIEGQDNELITLELIHRYVELLDKYFGSVCELDIIFNFEKAYFILDEFLMGGDVQDTSKKSVLKAIEQADLLQEEDESPRSVLEEMGLA [AP1S1] | -0.738
MTEQAISFAKDFLAGGIAAAISKTAVAPIERVKLLLQVQHASKQIAADKQYKGIVDCIVRIPKEQGVLSFWRGNLANVIRYFPTQALNFAFKDKYKQIFLGGVDKHTQFWRYFAGNLASGGAAGATSLCFVYPLDFARTRLAADVGKSGTEREFRGLGDCLVKITKSDGIRGLYQGFSVSVQGIIIYRAAYFGVYDTAKGMLPDPKNTHIVVSWMIAQTVTAVAGVVSYPFDTVRRRMMMQSGRKGADIMYTGTVDCWRKIFRDEGGKAFFKGAWSNVLRGMGGAFVLVLYDELKKVI [SLC25A6] | -3.48
MSAQAQMRALLDQLMGTARDGDETRQRVKFTDDRVCKSHLLDCCPHDILAGTRMDLGECTKIHDLALRADYEIASKERDLFFELDAMDHLESFIAECDRRTELAKKRLAETQEEISAEVSAKAEKVHELNEEIGKLLAKAEQLGAEGNVDESQKILMEVEKVRAKKKEAEEEYRNSMPASSFQQQKLRVCEVCSAYLGLHDNDRRLADHFGGKLHLGFIQIREKLDQLRKTVAEKQEKRNQDRLRRREEREREERLSRRSGSRTRDRRRSRSRDRRRRRSRSTSRERRKLSRSRSRDRHRRHRSRSRSHSRGHRRASRDRSAKYKFSRERASREESWESGRSERGPPDWRLESSNGKMASRRSEEKEAGEI [LUC7L] | 1.87
MIPRKRYGSKNTDQGVYLGLSKTQVLSPATAGSSSSDIAPLPPPVTLVPPPPDTMSCRDRTQEFLSACKSLQTRQNGIQTNKPALRAVRQRSEFTLMAKRIGKDLSNTFAKLEKLTILAKRKSLFDDKAVEIEELTYIIKQDINSLNKQIAQLQDFVRAKGSQSGRHLQTHSNTIVVSLQSKLASMSNDFKSVLEVRTENLKQQRSRREQFSRAPVSALPLAPNHLGGGAVVLGAESHASKDVAIDMMDSRTSQQLQLIDEQDSYIQSRADTMQNIESTIVELGSIFQQLAHMVKEQEETIQRIDENVLGAQLDVEAAHSEILKYFQSVTSNRWLMVKIFLILIVFFIIFVVFLA [STX5] | 1.55
MPILKQLVSSSVHSKRRSRADLTAEMISAPLGDFRHTMHVGRAGDAFGDTSFLNSKAGEPDGESLDEQPSSSSSKRSLLSRKFRGSKRSQSVTRGEREQRDMLGSLRDSALFVKNAMSLPQLNEKEAAEKGTSKLPKSLSSSPVKKANDGEGGDEEAGTEEAVPRRNGAAGPHSPDPLLDEQAFGDLTDLPVVPKATYGLKHAESIMSFHIDLGPSMLGDVLSIMDKEEWDPEEGEGGYHGDEGAAGTITQAPPYAVAAPPLARQEGKAGPDLPSLPSHALEDEGWAAAAPSPGSARSMGSHTTRDSSSLSSCTSGILEERSPAFRGPDRARAAVSRQPDKEFSFMDEEEEDEIRV [CDC42EP4] | -2.19

Proceeding to the next sequence to report its thermal stability score.
Value (thermal stability score, HeLa Kyoto) for record MPKVKSGAIGRRRGRQEQRRELKSAGGLMFNTGIGQHILKNPLIINSIIDKAALRPTDVVLEVGPGTGNMTVKLLEKAKKVVACELDPRLVAELHKRVQGTPVASKLQVLVGDVLKTDLPFFDTCVANLPYQISSPFVFKLLLHRPFFRCAILMFQREFALRLVAKPGDKLYCRLSINTQLLARVDHLMKVGKNNFRPPPKVESSVVRIEPKNPPPPINFQEWDGLVRITFVRKNKTLSAAFKSSAVQQLLEKNYRIHCSVHNIIIPEDFSIADKIQQILTSTGFSDKRARSMDIDDFIRLLHGFNAEGIHFS [DIMT1] = 1.74
